# SYSTEM UNDER TEST: UniProt:P05129
# EXPERIMENTAL PROTOCOL: Inhibitory activity of 10 uM compound against protein kinase C-gamma using histone as substrate
// reported inhibition per item

Below, 5 molecules whose answers are already recorded.
[
  {
    "MOL": "O=C1NC(=O)C(c2cn(CCCO)c3ncccc23)=C1c1ccccn1",
    "inhibition": "< 50%"
  },
  {
    "MOL": "COc1ccccc1C1=C(c2cn(CCCNC(=O)OC(C)(C)C)c3ncccc23)C(=O)NC1=O",
    "inhibition": "< 50%"
  },
  {
    "MOL": "O=C1NC(=O)C(c2cn(CCCO)c3ncccc23)=C1c1ccccc1C(F)(F)F",
    "inhibition": "50%"
  },
  {
    "MOL": "O=C1NC(=O)C(c2cn(CCCO)c3ncccc23)=C1c1ncc(C(F)(F)F)cc1Cl",
    "inhibition": "< 50%"
  },
  {
    "MOL": "COCCCn1cc(C2=C(c3ccccc3O)C(=O)NC2=O)c2cccnc21",
    "inhibition": "< 50%"
  }
]

UniProt:P05129 assay, molecule "COc1ccccc1C1=C(c2cn(CCCO)c3ncccc23)C(=O)NC1=O" , recorded inhibition = < 50%

This collection of values is drawn from ChEMBL document CHEMBL1146654.
